From: the supplement of paper PMC13380429

cell viability reference
Tested on: HepG2
experiment: cell viability relative to DMSO; higher = less toxic
recorded_conditions: 72 h; 10000 nM

compound | cell viability, %
CCCC[C@@]1(C2CCCC2)Cc2cc(OCCCC(=O)O)c(Cl)c(Cl)c2C1=O | 94.8
CN1CCN(c2ccc3[nH]c(-c4ccc5[nH]c(-c6ccc(O)cc6)nc5c4)nc3c2)CC1 | 42.7
Cc1c(OCC(F)(F)F)ccnc1C[S+]([O-])c1nc2ccccc2[nH]1 (stereo not given) | 96.5
NCCCNCCSP(=O)(O)O | 98.2
CC1(C)CCC(C)(C)c2cc(C3(c4ccc(C(=O)O)cc4)OCCO3)ccc21 | 103
C=CCOc1ccccc1OCC(O)CNC(C)C (stereo not given) | 107
c1ccc2c(c1)CCCc1cc(NCCN3CCOCC3)nnc1-2 | 101
Cc1ccc(NC(=O)c2cccc(N(C)C)c2)cc1NC(=O)c1ccc(O)cc1 | 84.1
CC(C)(C(=O)O)c1ccc(C(=O)CCCN2CCC(OC(c3ccccc3)c3ccccc3)CC2)cc1 | 92.9
Cc1cccc(C(=O)O)c1O [hydroxytoluic-acid] | 104

----------
System: HepG2
experiment: cell viability relative to DMSO; higher = less toxic
recorded_conditions: 72 h; 1 nM

compound | cell viability / %
COCC1(CO)C(=O)C2CCN1CC2 (configuration not stated) | 93
CC(C)(C)NCC(O)COc1cccc2[nH]c(=O)[nH]c12 (configuration not stated) | 97.7
N=C(C[C@@H](O)COc1ccccc1-c1ccccc1)N1CCCCC1 | 92.8
N[C@@H](C(=O)O)[C@@H](OCc1ccccc1)C(=O)O.N[C@H](C(=O)O)[C@H](OCc1ccccc1)C(=O)O | 100
O=C1NC(=O)C(c2cnc3ccccn23)=C1c1cn2c3c(cc(F)cc13)CN(C(=O)N1CCCCC1)CC2 | 121
CC(C)(C)NCC(O)c1cc(O)cc(O)c1 (configuration not stated) [TERBUTALINE HEMISULFATE] | 109
CN1CCN(c2ccc3[nH]c(-c4ccc5[nH]c(-c6ccc(O)cc6)nc5c4)nc3c2)CC1 | 101
Cn1c(=O)c2c(ncn2CCO)n(C)c1=O | 101
O=C(NCCO)c1cc(C(=O)NCCO)cc(C(=O)NCCO)c1 | 104
COc1cc(F)c(C(C)C)cc1-c1ccc(C(F)(F)F)cc1CN1C(=O)O[C@H](c2cc(C(F)(F)F)cc(C(F)(F)F)c2)[C@@H]1C | 108
COc1cc2ncnc(Oc3cccc(NC(=O)Nc4cc(C(C)(C)C(F)(F)F)on4)c3)c2cc1OC | 114
COc1ccc(Nc2ncnc3ccc(OC)cc23)cc1 | 106

----------
Test system: Caco-2
experiment: cell viability relative to DMSO; higher = less toxic
recorded_conditions: 72 h; 10 nM
cell viability reference
measured_attribute: cell viability (%)

compound | test_result
Cc1c(NC(=O)c2cccnc2)c(=O)n(-c2ccccc2)n1C | 98.7
C=C(NC(=O)C(=C)NC(=O)c1csc(C2=N[C@@H]3c4csc(n4)[C@H]4NC(=O)c5csc(n5)[C@H]([C@](C)(O)[C@@H](C)O)NC(=O)[C@H]5CSC(=N5)/C(=C/C)NC(=O)[C@H]([C@@H](C)O)NC(=O)c5csc(n5)[C@]3(CC2)NC(=O)[C@H](C)NC(=O)C(=C)NC(=O)[C@H](C)NC(=O)[C@H]([C@@H](C)CC)N[C@@H]2C=Cc3c([C@H](C)O)cc(nc3[C@H]2O)C(=O)O[C@@H]4C)n1)C(N)=O | 89.3
CC1(C)CCC(C)(C)c2cc(C3(c4ccc(C(=O)O)cc4)OCCO3)ccc21 | 95.5
O=C(NC[C@H](O)CO)c1ccncc1Nc1ccc(I)cc1F | 93.2
N#Cc1cc2c(OCC(O)CN3CCN(C(c4ccccc4)c4ccccc4)CC3)cccc2[nH]1 (centres undefined) | 92.7
COc1ccc(C[C@H]2NC[C@H](O)[C@H]2OC(C)=O)cc1 | 87
CNC(=O)[C@H](Cc1c[nH]c2ccccc12)NC(=O)[C@@H](CC(=O)NO)CC(C)C | 104
CC1(C)O[C@@H]2C[C@H]3[C@@H]4C[C@H](F)C5=CC(=O)C=C[C@]5(C)[C@H]4[C@@H](O)C[C@]3(C)[C@]2(C(=O)CO)O1 [flunisolide] | 103
C[C@@H](Oc1cc(-n2cnc3ccc(CN4CCN(C)CC4)cc32)sc1C(N)=O)c1ccccc1C(F)(F)F | 95.2
C[C@]12Cc3c[nH]nc3C[C@@H]1CC[C@@H]1[C@@H]2CC[C@@]2(C)[C@H]1CC[C@]2(C)O | 95
CN1CCCCC1Cn1cc(C(=O)c2cc([N+](=O)[O-])ccc2I)c2ccccc21 (centres undefined) | 92.8
CNCC(O)c1ccc(OC(=O)C(C)(C)C)c(OC(=O)C(C)(C)C)c1 (centres undefined) | 94
COc1cc2c(cc1OC)[C@@]13CCN4CC5=CCO[C@H]6CC(=O)N2[C@H]1[C@H]6[C@H]5C[C@H]43 | 89.9
Cc1cn(C[C@H](N)C(=O)O)c(=O)n(Cc2ccsc2C(=O)O)c1=O | 93.6
